systemName: Gamma-aminobutyric acid receptor subunit rho-1 (Homo sapiens, UniProt P24046)
Sequence (P24046 whole entry): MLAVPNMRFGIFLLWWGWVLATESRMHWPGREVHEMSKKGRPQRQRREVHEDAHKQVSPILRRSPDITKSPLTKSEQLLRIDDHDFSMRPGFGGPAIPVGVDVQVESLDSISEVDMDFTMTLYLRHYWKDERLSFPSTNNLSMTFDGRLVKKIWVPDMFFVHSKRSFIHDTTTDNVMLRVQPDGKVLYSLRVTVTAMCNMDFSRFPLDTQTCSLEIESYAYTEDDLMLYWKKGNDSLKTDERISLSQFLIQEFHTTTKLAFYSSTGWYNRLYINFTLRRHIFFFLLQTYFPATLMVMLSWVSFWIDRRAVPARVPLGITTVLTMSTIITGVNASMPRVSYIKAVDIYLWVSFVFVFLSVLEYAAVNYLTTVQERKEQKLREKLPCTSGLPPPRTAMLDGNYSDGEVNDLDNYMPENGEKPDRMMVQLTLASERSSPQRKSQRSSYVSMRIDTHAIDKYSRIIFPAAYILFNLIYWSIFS
measurementDescription: Antagonist activity at human GABAc Rho1 receptor expressed in Xenopus oocytes assessed as whole cell current production by two electrode voltage clamp method
Type: functional, cell-based
conditionSet: Oocyte
endpointName: Kb (µM)
// return numeric value only (unit: µM, not printed)

Look up Kb for this compound: `CP(=O)(O)[C@@H]1CC[C@@H](N)C1`
6.6

Another compound to look at: CCP(=O)(O)C1=CCC(N)C1 (racemic)
3.53

Another compound to look at: `CP(=O)(O)/C=C\CN`
38.9

Another compound to look at: N[C@H]1CC=C(C(=O)O)C1 (stereo in doubt; 6)
6

Another compound to look at: `CP(=O)(O)C1=CC[C@H](N)C1`
0.78

Another compound to look at: `CP(=O)(O)C1CCNCC1`
6

Another compound to look at: CC(C)P(=O)(O)C1=CCC(N)C1 (racemic)
13.1

Another compound to look at: `CP(=O)(O)C1=CCNCC1`
2.1

Another compound to look at: `CP(=O)(O)[C@H]1CC[C@H](N)C1`
6.6

Another compound to look at: N[C@H]1CC=C(C(=O)O)C1 (stereo in doubt; (S-6))
6.1

Another compound to look at: `Oc1noc2c1CCNC2`
32

Another compound to look at: `CCCCP(=O)(O)C1=CC[C@H](N)C1`
4.97

Another compound to look at: `CP(=O)(O)C1=CC[C@@H](N)C1`
18.9

Another compound to look at: `NCCCCC(=O)O`
20

Another compound to look at: CCCCP(=O)(O)C1=CCC(N)C1 (racemic)
7.24

Another compound to look at: `CP(=O)(O)[C@H]1CC[C@@H](N)C1`
1.1

====

systemName: Gamma-aminobutyric acid receptor subunit rho-1 (Homo sapiens)
measurementDescription: Agonist activity at human GABAc Rho1 receptor expressed in Xenopus oocytes assessed as whole cell current production by two electrode voltage clamp method
# key: entry, value: EC50
// return numeric value only (unit: µM, not printed)

A selection of reference data follows.
NC[C@H]1C[C@@H]1C(=O)O ... 59
NC[C@@H]1C[C@H]1C(=O)O ... 9
NC/C=C/C(=O)O ... 0.4
NC[C@H]1C[C@H]1C(=O)O ... 40

Look up EC50 for this molecule: `NCc1cc(=O)[nH]o1`
1.4

====

systemName: Gamma-aminobutyric acid type B receptor subunit 1 (Homo sapiens)
Sequence (Q9UBS5 whole entry): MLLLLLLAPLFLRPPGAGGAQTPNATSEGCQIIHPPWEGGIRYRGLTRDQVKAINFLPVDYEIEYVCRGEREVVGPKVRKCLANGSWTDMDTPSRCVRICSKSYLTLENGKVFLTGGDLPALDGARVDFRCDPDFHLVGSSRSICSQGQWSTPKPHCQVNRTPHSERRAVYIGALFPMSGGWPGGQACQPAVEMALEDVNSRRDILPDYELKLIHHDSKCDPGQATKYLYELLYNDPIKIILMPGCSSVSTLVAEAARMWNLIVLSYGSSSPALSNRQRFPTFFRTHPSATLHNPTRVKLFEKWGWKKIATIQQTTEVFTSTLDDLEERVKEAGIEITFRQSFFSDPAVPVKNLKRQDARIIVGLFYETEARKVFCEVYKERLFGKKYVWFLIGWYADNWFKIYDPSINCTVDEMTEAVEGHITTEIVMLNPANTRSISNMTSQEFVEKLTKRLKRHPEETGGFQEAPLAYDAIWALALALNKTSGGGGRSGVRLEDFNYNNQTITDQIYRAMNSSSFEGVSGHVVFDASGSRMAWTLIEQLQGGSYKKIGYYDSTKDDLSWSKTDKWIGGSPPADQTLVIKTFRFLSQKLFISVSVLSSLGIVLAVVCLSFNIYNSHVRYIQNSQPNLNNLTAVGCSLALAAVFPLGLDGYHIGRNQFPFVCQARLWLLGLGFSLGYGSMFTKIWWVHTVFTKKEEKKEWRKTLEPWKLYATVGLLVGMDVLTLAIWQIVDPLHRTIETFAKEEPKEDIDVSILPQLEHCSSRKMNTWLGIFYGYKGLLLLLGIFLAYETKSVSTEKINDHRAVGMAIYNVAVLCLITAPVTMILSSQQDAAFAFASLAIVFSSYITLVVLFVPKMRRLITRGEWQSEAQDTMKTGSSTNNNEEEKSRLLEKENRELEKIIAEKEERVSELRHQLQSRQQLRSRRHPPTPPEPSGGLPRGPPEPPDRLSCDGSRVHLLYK
measurementDescription: Agonist activity at human GABAb 1A/2 receptor expressed in Xenopus oocytes assessed as whole cell current production by two electrode voltage clamp method
endpointName: pEC50
Scale explanation: pEC50 corresponds to minus log10 of a concentration expressed in moles per litre.

A selection of reference data follows.
CP(=O)(O)C1=CCC(N)C1 (racemic) ... 4.29
CP(=O)(O)C1=CCNCC1 ... 3.30
CP(=O)(O)C1=CC[C@@H](N)C1 ... 4.14

Here's the next entry for you.
Look up pEC50 for this molecule: `CP(=O)(O)C1=CC[C@H](N)C1`
4.28

====

# key: entry, value: inhibition
systemName: GABA-A receptor; agonist GABA site (Homo sapiens) (UniProt P14867+P47870+P28472+P48169+P34903+P18505+P47869+P31644+Q16445)
measurementDescription: Activity at human alpha-1-beta-2-gamma-2L GABAA receptor expressed in Xenopus oocytes assessed as inhibition of current production at 600 uM by two electrode voltage clamp method relative to GABA
Assay type: cell-based
conditionSet: Oocyte
// return numeric value only (unit: %, not printed)

A selection of reference data follows.
CC(C)P(=O)(O)C1=CCC(N)C1 (racemic) ... 8.8
CCCCP(=O)(O)C1=CCC(N)C1 (racemic) ... 23.2
CCP(=O)(O)C1=CCC(N)C1 (racemic) ... 5.2

Look up inhibition for this molecule: `CCCCP(=O)(O)C1=CC[C@H](N)C1`
24.2

Another molecule to look at: CP(=O)(O)C1=CCC(N)C1 (racemic)
6.2

Another molecule to look at: `CP(=O)(O)C1=CC[C@H](N)C1`
4.1

Another molecule to look at: NC1CC=C(P(=O)(O)Cc2ccccc2)C1 (racemic)
64.1
